# protocol-text: Inhibition of TEM-1 (unknown origin) using nitrocefin as substrate preincubated 10 mins followed by substrate addition measured after 20 mins relative to control
assay-readout: Imax (%)
Lab book: enter the figure in %, no units written.

compound "Cn1cc(C2=C(c3ccc(Cl)cc3Cl)C(=O)NC2=O)c2ccccc21" , Imax observed: 2

compound "Nc1ccc2c3c(cccc13)C(=O)NC2=O" , Imax observed: 131

compound "CC(=O)[C@]1(O)Cc2c(O)c3c(c(O)c2[C@@H](O[C@H]2C[C@H](N)[C@H](O)[C@H](C)O2)C1)C(=O)c1ccccc1C3=O" , Imax observed: 100

compound "OCCN(CCO)c1nc(N2CCCCC2)c2nc(N(CCO)CCO)nc(N3CCCCC3)c2n1" , Imax observed: 26
